# Test system: A3-supertype alleles (A*0301, A*1101, A*3101, A*3301, A*6801)
# Test method notes: A3-supertype cross-reactive binding
# Parameters: species or system human
# Condition summary: of five A3-supertype alleles tested
Where a SMILES comes first, the peptide text is derived from it. [ ]: non-standard residue; d: D form. Abu = CC[C@H](N)C(=O)O
Reported values of No. of A3 Alleles Crossbound for individual entries
Answer with a number only.

Examples from the recorded data:
INSERT INTO results (compound, tested_target, numeric_readout) VALUES
  ('CC[C@H](C)[C@H](N)C(=O)N[C@H](C(=O)N[C@@H](Cc1c[nH]c2ccccc12)C(=O)N[C@@H](CC(C)C)C(=O)NCC(=O)N[C@@H](CC(C)C)C(=O)N[C@@H](CCCNC(=N)N)C(=O)N[C@@H](CO)C(=O)N[C@@H](CC(C)C)C(=O)N[C@@H](CCCCN)C(=O)O)C(C)C', 'A3-supertype alleles (A*0301, A*1101, A*3101, A*3301, A*6801)', 4),
  ('CC[C@H](NC(=O)CNC(=O)CNC(=O)[C@H](C)NC(=O)[C@H](CC)NC(=O)[C@@H](NC(=O)[C@@H](N)[C@@H](C)O)C(C)C)C(=O)N[C@@H](C)C(=O)N[C@@H](CCCNC(=N)N)C(=O)O [Her2/neu.218.B3B7] (H-TV[Abu]AGG[Abu]AR-OH)', 'A3-supertype alleles (A*0301, A*1101, A*3101, A*3301, A*6801)', 5),
  ('CC(C)C[C@H](NC(=O)[C@@H]1CCCN1C(=O)[C@@H](NC(=O)[C@H](C)N)C(C)C)C(=O)N[C@@H](CC(=O)O)C(=O)N[C@@H](CO)C(=O)N[C@H](C(=O)N[C@@H](Cc1ccccc1)C(=O)N[C@@H](Cc1ccc(O)cc1)C(=O)N[C@@H](CCCNC(=N)N)C(=O)O)[C@@H](C)O', 'A3-supertype alleles (A*0301, A*1101, A*3101, A*3301, A*6801)', 2);

Req: Quickly give me recorded No. of A3 Alleles Crossbound for CC[C@H](C)[C@H](N)C(=O)N[C@@H](CO)C(=O)N[C@@H](Cc1c[nH]c2ccccc12)C(=O)N[C@@H](CC(C)C)C(=O)NCC(=O)N[C@@H](CC(C)C)C(=O)N[C@@H](CCCNC(=N)N)C(=O)N[C@@H](CO)C(=O)N[C@@H](CC(C)C)C(=O)N[C@@H](CCCNC(=N)N)C(=O)O
Resp: 4

Req: Quickly give me recorded No. of A3 Alleles Crossbound for CC[C@H](C)[C@H](N)C(=O)N[C@H](C(=O)N[C@@H](Cc1c[nH]c2ccccc12)C(=O)N[C@@H](CC(C)C)C(=O)NCC(=O)N[C@@H](CC(C)C)C(=O)N[C@@H](CCCNC(=N)N)C(=O)N[C@@H](CO)C(=O)N[C@@H](CC(C)C)C(=O)N[C@@H](CCCNC(=N)N)C(=O)O)C(C)C
Resp: 4

Req: Quickly give me recorded No. of A3 Alleles Crossbound for CC[C@H](NC(=O)CNC(=O)CNC(=O)[C@H](C)NC(=O)[C@H](CC)NC(=O)[C@@H](NC(=O)[C@@H](N)[C@@H](C)O)C(C)C)C(=O)N[C@@H](C)C(=O)N[C@@H](CCCCN)C(=O)O [Her2/neu.218.B3B7K9] (H-TV[Abu]AGG[Abu]AK-OH)
Resp: 3

Req: Quickly give me recorded No. of A3 Alleles Crossbound for CC[C@H](NC(=O)[C@H](CC(N)=O)NC(=O)[C@@H](NC(=O)[C@@H](N)CC)C(C)C)C(=O)N[C@@H](CO)C(=O)N[C@@H](CCC(N)=O)C(=O)N[C@@H](Cc1ccccc1)C(=O)N[C@@H](CC(C)C)C(=O)N[C@@H](CCCCN)C(=O)O [Her2/neu.528.B1B4K9] (H-[Abu]VN[Abu]SQFLK-OH)
Resp: 4
